Taken from patent US20240342292A1.

This section presents compounds with their documented DC50 values.
assay.system: L858R/T790M/C797S EGFR (Homo sapiens, UniProt P00533, C797S/L858R/T790M)
Construct: expressed in transfected cells; host or cells: H1975 clone #25 (lentiviral over-expression, endogenous EGFR knocked out by sgRNA)
Sequence (P00533 25-1210 T790M/C797S/L858R): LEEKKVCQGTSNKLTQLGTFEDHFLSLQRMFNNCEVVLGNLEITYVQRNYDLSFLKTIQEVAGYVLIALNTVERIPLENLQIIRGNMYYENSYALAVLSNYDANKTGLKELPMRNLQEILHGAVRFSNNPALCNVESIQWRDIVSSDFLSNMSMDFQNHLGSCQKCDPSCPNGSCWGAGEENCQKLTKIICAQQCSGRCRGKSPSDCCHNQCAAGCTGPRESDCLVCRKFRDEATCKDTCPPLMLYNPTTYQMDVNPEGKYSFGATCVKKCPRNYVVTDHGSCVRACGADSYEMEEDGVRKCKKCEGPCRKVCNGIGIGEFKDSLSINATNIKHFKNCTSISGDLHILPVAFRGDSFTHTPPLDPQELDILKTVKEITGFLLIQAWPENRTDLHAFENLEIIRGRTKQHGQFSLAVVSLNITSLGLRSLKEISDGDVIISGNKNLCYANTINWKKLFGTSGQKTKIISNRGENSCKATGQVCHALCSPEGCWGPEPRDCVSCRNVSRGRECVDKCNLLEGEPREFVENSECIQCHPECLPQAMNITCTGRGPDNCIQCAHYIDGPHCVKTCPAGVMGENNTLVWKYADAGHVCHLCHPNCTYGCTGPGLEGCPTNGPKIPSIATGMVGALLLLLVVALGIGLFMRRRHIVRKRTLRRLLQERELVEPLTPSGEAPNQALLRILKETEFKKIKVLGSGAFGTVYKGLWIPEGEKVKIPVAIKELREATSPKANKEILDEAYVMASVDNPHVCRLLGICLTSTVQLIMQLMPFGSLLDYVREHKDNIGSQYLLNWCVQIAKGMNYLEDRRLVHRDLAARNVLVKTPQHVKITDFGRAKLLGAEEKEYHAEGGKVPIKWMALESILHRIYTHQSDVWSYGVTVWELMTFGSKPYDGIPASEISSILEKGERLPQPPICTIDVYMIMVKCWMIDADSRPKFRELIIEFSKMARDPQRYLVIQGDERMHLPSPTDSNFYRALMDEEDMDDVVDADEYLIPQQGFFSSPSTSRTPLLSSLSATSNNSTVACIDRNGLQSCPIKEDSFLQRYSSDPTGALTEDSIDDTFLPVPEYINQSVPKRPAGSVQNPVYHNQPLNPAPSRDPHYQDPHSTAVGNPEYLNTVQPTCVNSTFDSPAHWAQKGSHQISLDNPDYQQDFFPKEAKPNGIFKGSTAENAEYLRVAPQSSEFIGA
measurement.description: EGFR degradation HTRF assay in H1975-clone #25 (LTC) cells
Format: cell-based
details: H1975 # 25-LTC (L858R/T790M/C797S), 16h treatment, HTRF

{"given.smiles": "Cc1cc2cc(n1)-c1cnn(C)c1OCCC[C@@H](C)CN1/C(=N/C2=O)Nc2ccc(N3CCN(C(=O)[C@@H]4CN(c5cc(F)c([C@H]6CCC(=O)NC6=O)c(F)c5)CC4(C)C)CC3)cc21", "DC50 [nM]": 1.88}
{"given.smiles": "Cc1cc2cc(n1)-c1cnn(C)c1OCCC[C@@H](C)CN1/C(=N/C2=O)Nc2ccc(N3CCC(N4CCN(c5cc(F)c([C@H]6CCC(=O)NC6=O)c(F)c5)CC4=O)CC3)cc21", "DC50 [nM]": 0.678}
{"given.smiles": "Cc1cc2cc(n1)-c1cnn(C)c1OCCCCCN1/C(=N/C2=O)Nc2ccc(C(=O)N(C)C3CCN(CCc4cc(F)c([C@H]5CCC(=O)NC5=O)c(F)c4)CC3)cc21", "DC50 [nM]": 0.602}
